Every entry's value here was drawn from patent US4060608A.

- PROTOCOL DESCRIPTION: 7-day median lethal dose (LD50) in female mice
- Format: in vivo
- TEST CONDITIONS: mouse, in vivo, 7-day, at 23° C
Where a name gives a salt, the structure may show the parent alone.
ASSAY READOUT: LD50 at 168 h (mg/kg)
Numbers only, in mg/kg.

// query Item under review: CN(C1=Nc2ccc(Cl)cc2C(c2ccccc2)=[N+]([O-])C1)C(O)c1ccco1 (stereo not shown) [SH60, hydrochloride] . Reported LD50 at 168 h?
// result 900
